Source: paper PMC2756588

Molecular target: T1, Cyk3, Q07533
T1 sequence (Q07533 1-83, looked up): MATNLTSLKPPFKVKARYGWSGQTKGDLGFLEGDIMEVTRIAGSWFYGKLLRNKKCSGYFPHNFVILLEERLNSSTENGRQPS
Assay: SPOT array
Details: median of control spots 1451
reported_property: SPOT intensity

LSKRLPLRFPEHTSS
0

Required: SPOT intensity, one value per binder below.
1. VPKEPAPAPPPEPDM
2. PPPPPPPPPPPLPQS
3. RHLKLVPSTPMDIPW
4. GPPPPLPPPLFPSSS

Key:
1. 1
2. 0
3. 0
4. 0

Provide SPOT intensity values for the following items, in order.
1. RRASLFPRDPKRLRP
2. VNFRRIPTGPDSPPT

Key:
1. 3
2. 0
